Sourced from patent US20120316071A1

Tested on: T1, Recombinant Human DLL4 (delta-like protein 4) (human, UniProt Q9NR61 27-524)
T1 construct: Bought recombinant protein (R&D Systems Cat#1506-D4/CF); also called rHuman DLL4; Delta-like 4
Assay details: ELISA, DLL4 coated on plate; Fab at 3.70 (head prints µM, text says nM)

# Binder, ELISA signal
data = [
    ("Fab VH5-51_IGHD5-18*01>3_IGHJ4*01 G100K/G104T G24T/S28R/G35V (H:KT TRV) & V3-4_IGLJ1*01 (Fab, V domains shown, Tested as a Fab made in E. coli; also called H:KT TRV & L:wt; Wildtype (light chain)) VH: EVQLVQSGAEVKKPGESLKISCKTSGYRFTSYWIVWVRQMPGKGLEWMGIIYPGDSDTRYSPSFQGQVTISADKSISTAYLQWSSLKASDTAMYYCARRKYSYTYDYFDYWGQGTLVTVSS VL: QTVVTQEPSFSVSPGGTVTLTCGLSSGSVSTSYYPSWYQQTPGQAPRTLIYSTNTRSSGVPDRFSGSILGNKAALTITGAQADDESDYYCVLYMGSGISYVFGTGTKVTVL", 0.03),
    ("Fab VH5-51_IGHD5-18*01>3_IGHJ4*01 G100K/G104T G24T/S28R/G35V (H:KT TRV) & V3-4_IGLJ1*01 V91L/S96P S52M (Fab, V domains shown, Tested as a Fab made in E. coli; also called H:KT TRV & L:LP S52M) VH: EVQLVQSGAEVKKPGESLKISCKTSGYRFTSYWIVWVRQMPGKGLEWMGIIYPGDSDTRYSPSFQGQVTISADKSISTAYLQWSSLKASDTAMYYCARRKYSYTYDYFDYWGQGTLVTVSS VL: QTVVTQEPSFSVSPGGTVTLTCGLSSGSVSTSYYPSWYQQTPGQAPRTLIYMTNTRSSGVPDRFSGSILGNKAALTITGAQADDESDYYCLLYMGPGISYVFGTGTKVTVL", 0.03),
    ("Fab VH5-51_IGHD5-18*01>3_IGHJ4*01 G100K/G104T G24T/S28R/G35V (H:KT TRV) & V3-4_IGLJ1*01 V91L/S96P S52G (Fab, V domains shown, Tested as a Fab made in E. coli; also called H:KT TRV & L:LP S52G) VH: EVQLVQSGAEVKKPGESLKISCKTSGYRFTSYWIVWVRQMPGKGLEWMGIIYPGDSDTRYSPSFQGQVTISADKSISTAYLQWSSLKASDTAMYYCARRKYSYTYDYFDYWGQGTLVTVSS VL: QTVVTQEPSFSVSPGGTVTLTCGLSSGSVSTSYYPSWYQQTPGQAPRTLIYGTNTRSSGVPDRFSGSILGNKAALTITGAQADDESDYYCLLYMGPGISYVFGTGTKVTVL", 0.06),
]
